- assay.system: [^3 H]dofetilide binding site in HL-1 cells (IKr) (Mus musculus)
- Sequence (O35219 whole entry): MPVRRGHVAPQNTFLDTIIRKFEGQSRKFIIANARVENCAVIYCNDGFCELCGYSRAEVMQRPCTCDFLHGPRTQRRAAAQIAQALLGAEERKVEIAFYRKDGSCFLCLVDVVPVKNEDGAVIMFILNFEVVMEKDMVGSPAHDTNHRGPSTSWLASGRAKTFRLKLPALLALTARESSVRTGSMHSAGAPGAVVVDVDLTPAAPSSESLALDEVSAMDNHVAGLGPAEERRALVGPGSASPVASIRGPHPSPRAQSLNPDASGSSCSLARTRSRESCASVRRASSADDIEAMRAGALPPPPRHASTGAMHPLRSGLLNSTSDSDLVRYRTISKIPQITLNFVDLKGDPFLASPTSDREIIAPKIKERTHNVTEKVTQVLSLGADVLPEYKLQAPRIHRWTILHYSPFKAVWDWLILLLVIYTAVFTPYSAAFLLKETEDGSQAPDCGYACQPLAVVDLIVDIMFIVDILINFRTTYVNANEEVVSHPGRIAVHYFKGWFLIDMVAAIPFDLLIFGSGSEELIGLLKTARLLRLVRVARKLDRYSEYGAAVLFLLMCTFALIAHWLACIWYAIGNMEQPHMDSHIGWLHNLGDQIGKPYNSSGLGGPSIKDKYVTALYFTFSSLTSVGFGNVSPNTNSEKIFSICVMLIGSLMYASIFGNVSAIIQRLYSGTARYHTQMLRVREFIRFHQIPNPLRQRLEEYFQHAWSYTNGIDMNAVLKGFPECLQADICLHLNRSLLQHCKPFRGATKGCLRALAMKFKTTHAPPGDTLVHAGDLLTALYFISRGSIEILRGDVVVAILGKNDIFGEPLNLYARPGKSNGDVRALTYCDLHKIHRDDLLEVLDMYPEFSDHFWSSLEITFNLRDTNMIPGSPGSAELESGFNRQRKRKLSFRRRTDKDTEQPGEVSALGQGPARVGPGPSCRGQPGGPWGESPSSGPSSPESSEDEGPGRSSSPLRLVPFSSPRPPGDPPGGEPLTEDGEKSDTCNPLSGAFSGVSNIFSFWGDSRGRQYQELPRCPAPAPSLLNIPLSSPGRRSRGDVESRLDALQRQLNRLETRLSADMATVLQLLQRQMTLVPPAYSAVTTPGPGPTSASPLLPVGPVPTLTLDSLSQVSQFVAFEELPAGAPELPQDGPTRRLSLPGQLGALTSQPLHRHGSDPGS
- procedure.details: biochemical
Where a name gives a salt, the structure may show the parent alone.
measurement.label: pKd
One number for each entry, as −log10 of the molar value.

Could you share which pKd value was measured for CN1CCN(CCCCN2C(=O)CN(/N=C/c3ccc(-c4ccc(Cl)cc4)o3)C2=O)CC1 [azimilide dihydrochloride] ?
6.10

Where these numbers come from: patent US6316207A
